target: UniProt Q9BW19; experiment: HSET ADP-Glo Assay S - 3 μM ATP; details: 5 nM HSET, 70 μg/mL microtubule, 80 min at rt, read-out: COMBINED HSET ADP GLO IC50
pIC50: −log10 of the molar value.
Classify by measured pIC50: TRUE if it is equal to or exceeds 7, FALSE if it is smaller.

Check if pIC50 >= 7 (inclusive). Item: `Cc1nc(NC(=O)C[C@@H](CC#N)NC(=O)c2cccc(-c3cnn(C)c3)c2)sc1C(=O)OC(C)(C)C`
FALSE

And what about the compound `CCOC(=O)c1sc(NC(=O)CCNC(=O)c2cccc(-c3noc(CC)n3)c2)nc1C` ?
FALSE

Cool, now `Cc1nc(-c2ccc3ccnc(N[C@H]4C[C@@H](C(=O)Nc5nc(C)c(C(=O)OC(C)(C)C)s5)C4)c3c2)no1`
TRUE

Lookup `CCCOC(=O)n1cc(NC(=O)CCNC(=O)c2cccc(-c3noc(C)n3)c2)nc1C`
FALSE

And the next one, `CCOC(=O)c1sc(NC(=O)CCNC(=O)c2cc(C)cc(C(=O)OC)c2)nc1C` ?
TRUE

One more compound: `Cc1nc(NC(=O)[C@H]2C[C@@H](Nc3nccc4ccc(C(F)(F)F)cc34)C2)sc1C(=O)OC(C)(C)C`
FALSE

Repeat with `COC1(c2sc(NC(=O)CCNc3nccc4ccc(-c5noc(C)n5)cc34)nc2C)COC1`
FALSE

Entry `CCOC(=O)c1sc(NC(=O)CCNC(=O)c2cccc(C)c2)nc1C` please
FALSE

Repeat for the following compound: `Cc1ccc2ccnc(NC[C@H](O)C(=O)Nc3nc(C)c(C(=O)OC(C)(C)C)s3)c2c1`
TRUE

// next record `CCCOC(=O)c1sc(NC(=O)C[C@@H](CCCNC)NC(=O)c2cccc(-c3noc(C)n3)c2)nc1C`
FALSE

Moving on to `CCOC(=O)c1sc(NC(=O)CC(C)(C)NC(=O)c2cccc(-c3noc(C)n3)c2)nc1C`
FALSE

Continue with `Cc1nc(-c2ccc3ccnc(NC[C@H](O)C(=O)Nc4nc(C)c(CC(C)C)s4)c3c2)no1`
TRUE

Do the same for `COC1(c2cnc(NC(=O)CCNc3nccc4ccc(-c5noc(C)n5)cc34)s2)CCCCC1` please
FALSE

// next record `COC(=O)c1sc(NC(=O)C[C@H](CC(=O)O)NC(=O)c2cccc(-c3noc(C)n3)c2)nc1C`
FALSE

Please give the result for `CCOC(=O)c1cc(C(=O)NCCNc2nccc3ccc(-c4noc(C)n4)cc23)nn1C` too.
FALSE

---

Assignment: determine reported IC50 for the given compounds.
target: HSET full length protein (Homo sapiens (Human), UniProt Q9BW19); assay: HSET ADP-Glo Assay S - 3 μM ATP; conditions: 5 nM HSET, 70 μg/mL microtubule, 80 min at rt, read-out: COMBINED HSET ADP GLO IC50
Sequence (Q9BW19 whole entry): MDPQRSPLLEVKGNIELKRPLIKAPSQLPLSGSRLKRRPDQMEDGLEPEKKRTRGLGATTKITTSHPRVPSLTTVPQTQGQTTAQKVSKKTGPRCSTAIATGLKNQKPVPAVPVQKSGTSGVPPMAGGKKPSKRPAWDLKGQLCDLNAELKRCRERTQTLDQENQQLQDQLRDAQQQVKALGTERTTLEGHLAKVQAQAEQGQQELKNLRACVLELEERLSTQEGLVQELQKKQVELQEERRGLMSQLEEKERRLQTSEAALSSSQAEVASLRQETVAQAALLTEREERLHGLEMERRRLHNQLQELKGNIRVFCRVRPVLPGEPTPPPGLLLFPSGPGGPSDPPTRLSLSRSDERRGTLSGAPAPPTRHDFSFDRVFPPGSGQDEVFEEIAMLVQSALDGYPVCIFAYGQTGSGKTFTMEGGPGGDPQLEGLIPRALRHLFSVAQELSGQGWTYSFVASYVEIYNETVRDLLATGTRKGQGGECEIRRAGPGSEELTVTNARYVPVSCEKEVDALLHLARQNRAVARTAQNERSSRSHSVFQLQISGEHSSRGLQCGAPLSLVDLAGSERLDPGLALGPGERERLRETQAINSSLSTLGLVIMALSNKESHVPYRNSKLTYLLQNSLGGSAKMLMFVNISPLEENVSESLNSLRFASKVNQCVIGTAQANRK
Structures can show the parent of a compound that is named as a salt.
Answer with a number only, understood to be in nM.

Which value of IC50 has been reported for `Cc1nc(-c2cccc(C(=O)NCCC(=O)Nc3nc(C)c(C(=O)OCC4CC4)s3)c2)no1` in the records?
31

Same lookup for `Cc1nc(-c2ccc3ccnc(NCCC(=O)Nc4cn(C(=O)OC(C)C)c(C)n4)c3c2)no1` , please.
207

How about this compound: `Cc1nc(NC(=O)[C@H]2C[C@@H](NC(=O)c3cccc(-c4ncon4)c3)C2)sc1C(=O)OC(C)(C)C`
1590

Now try `Cc1nc(NC(=O)CCNC(=O)c2cccc(-c3nnn(C)n3)c2)sc1C(C)(C)C` .
184

How about `Cc1nc(-c2ccc3ccnc(N[C@H]4CCN(C(=O)c5cnc[nH]5)C4)c3c2)no1` ?
9460

Quick one: `CCCOC(=O)c1sc(NC(=O)CCNc2nccc3ccc(C)cc23)nc1C`
141

CCCOC(=O)c1sc(NC(=O)[C@H](N)CNC(=O)c2cccc(-c3noc(C)n3)c2)nc1C [Example 173, formate] ?
63

Record: `CCCOC(=O)c1sc(NC(=O)CCNC(=O)c2cc(C(=O)OC)cc(C(C)(C)C)c2)nc1C`
77

And then `CCCOC(=O)n1cc(NC(=O)CCNC(=O)c2cccc(-c3noc(C)n3)c2)cn1` , what is it?
11500

Moving on to `CCCCCc1cc(NC(=O)[C@H]2C[C@@H](Nc3nccc4ccc(-c5noc(C)n5)cc34)C2)nn1C`
276

Same for `CCCOC(=O)c1sc(C(=O)N2CC[C@@H](Nc3nccc4ccc(-c5noc(C)n5)cc34)[C@@H]2C)nc1C`
27

Another compound: `Cc1cc(C(=O)N2CC[C@H](Nc3nccc4ccc(-c5noc(C)n5)cc34)C2)no1`
5620

Now the compound `CCOC(=O)n1cc(NC(=O)CCNC(=O)c2cccc(-c3noc(C)n3)c2)nc1C`
2250

What do we get for `CCCCCc1cc(NC(=O)[C@H](O)CNc2nccc3ccc(-c4noc(C)n4)cc23)nn1C` ?
616

Same again, this time with `CCCOC(=O)c1cc(NC(=O)CCNC(=O)c2cc(C)cc(-c3noc(C)n3)c2)nn1C`
116

And then `Cc1nc(-c2ccc3ccnc(NC[C@@H](O)C(=O)Nc4nc(C)c(C(C)(C)C)s4)c3c2)no1` , what is it?
726

How about this compound: `Cc1nc(-c2ccc3ccnc(N[C@H]4C[C@@H](C(=O)Nc5cc(C(C)(C)C)on5)C4)c3c2)no1`
836

Input `Cc1nc(-c2ccc3ccnc(NCCC(=O)Nc4ncc(C5=CCCCC5)s4)c3c2)no1`
848

How about this compound: `CCOC(=O)c1sc(NC(=O)CCNC(=O)c2cccc(-c3noc(C)n3)c2)nc1C(C)C`
477

Now consider `CCCOC(=O)c1sc(NC(=O)CCNC(=O)c2cccc(-c3noc(C)n3)n2)nc1C` .
37

Subsequent entry: CCOC(=O)c1sc(NC(=O)CC(NC(=O)c2cccc(-c3noc(C)n3)c2)C2CCNCC2)nc1C (stereo not shown) [Example 146, formate]
260

Param item: `CCCOC(=O)c1sc(NC(=O)[C@H]2C[C@@H](Nc3nccc4ccc(-c5noc(C)n5)cc34)C2)nc1C`
7

Input `CCCOC(=O)c1sc(NC(=O)CCNC(=O)c2cc(C(=O)OC)cc(-c3noc(C)n3)c2)nc1C`
281

# repeat for `Cc1nc(-c2cccc(C(=O)N[C@H](CC#N)CC(=O)N(C)c3nc(C)c(C(=O)OC(C)C)s3)c2)no1`
295

Next: `CCCCCc1cc(NC(=O)[C@@H](O)CNc2nccc3ccc(-c4noc(C)n4)cc23)nn1C`
270

And the next one, `CCOC(=O)c1sc(NC(=O)CCNC(=O)c2cc(CC)cc(C(=O)OC)c2)nc1C` ?
17

Please do the same for `Cc1nc(NC(=O)[C@H](O)CNC(=O)c2cccc(-c3cnn(C)c3)c2)cn1C(=O)OC(C)C` as well.
5100

Again, but for `CCOC(=O)c1sc(NC(=O)CCNC(=O)c2cc(/C=C/c3ccccc3)cc(C(=O)OC)c2)nc1C`
6350

Same again, this time with `Cc1nc(-c2ccc3ccnc(N[C@H]4CCN(C(=O)c5cc(C(C)(C)C)[nH]n5)C4)c3c2)no1`
6100

And the next one, `Cc1nc(NC(=O)C[C@H](CC#N)NC(=O)c2cccc(-c3cnn(C)c3)c2)sc1C(=O)OC(C)C` ?
1100

Note, next up: `Cc1nnn(-c2cccc(C(=O)NCCC(=O)Nc3nc(C)c(C(C)(C)C)s3)c2)n1`
278

---

target: HSET full length protein (Homo sapiens (Human)); experiment: HSET ADP-Glo Assay S - 3 μM ATP; assay type: biochemical; conditions: 5 nM HSET, 70 μg/mL microtubule, 80 min at rt, read-out: COMBINED HSET ADP GLO IC50
Where a name gives a salt, the structure may show the parent alone.
readout: pIC50
Units for pIC50: none; it is -log10 of a concentration expressed in mol/L.

I would be grateful if you could share the reported pIC50 for `CCOC(=O)c1sc(NC(=O)CCNC(=O)c2cccc(-c3noc(C)n3)c2)nc1C` .
7.20

How about this molecule: `CCOC(=O)c1sc(NC(=O)[C@H]2C[C@@H](Nc3nccc4ccc(-c5noc(C)n5)cc34)C2)nc1C(F)F`
6.84

// query: `CCCOC(=O)c1sc(NC(=O)[C@H](O)CNc2nccc3ccc(-c4noc(C)n4)cc23)nc1C`
9.00

Follow-up entry: `Cc1nc(-c2ccc3ccnc(NCCC(=O)Nc4ncc(C(C)(C)C)s4)c3c2)no1`
6.70

And then `Cc1nc(NC(=O)C[C@H](CC#N)NC(=O)c2cccc(-c3cnn(C)c3)n2)sc1C(=O)OC(C)C` , what is it?
5.77

Do the same for `CCCCCc1cc(NC(=O)CCNc2nccc3ccc(-c4noc(C)n4)cc23)nn1C` please
6.78

// repeat for `CCCOC(=O)c1sc(NC(=O)CCNC(=O)c2cccc(-c3noc(C)n3)c2)nc1C` and report
7.96

Also check CCOC(=O)c1sc(NC(=O)C(C)CNC(=O)c2cccc(-c3noc(C)n3)c2)nc1C (stereo not drawn)
5.26

Repeat for the following molecule: `COC(=O)c1sc(N(C)C(=O)C[C@@H](CC(=O)O)NC(=O)c2cccc(-c3noc(C)n3)c2)nc1C`
5.14

Also, `CNCCC[C@@H](CC(=O)Nc1nc(C)c(C(=O)OC(C)C)s1)NC(=O)c1cccc(-c2noc(C)n2)c1` please.
7.28

What do you have for `CCCOC(=O)c1sc(N(C)C(=O)CCNC(=O)c2cc(Cl)cc(-c3noc(C)n3)c2)nc1C` ?
7.52

Queued: `CCOC(=O)c1sc(NC(=O)C[C@H](CN)NC(=O)c2cccc(-c3noc(C)n3)c2)nc1C`
6.88

Next up: `Cc1nc(-c2ccc3ccnc(NCCC(=O)Nc4cnn(C(=O)OC(C)(C)C)c4)c3c2)no1`
6.80

Next molecule: `Cc1nc(-c2ccc3ccnc(N[C@H]4C[C@@H](C(=O)Nc5nc(C)c(C(F)(F)F)s5)C4)c3c2)no1`
6.17

What about this molecule? `Cc1nc(-c2ccc3ccnc(NC4CN(C(=O)Nc5nc(C)c(C(C)(C)C)s5)C4)c3c2)no1`
7.36

One more molecule: `CCCN(C)C(=O)c1sc(NC(=O)CCNc2nccc3ccc(-c4noc(C)n4)cc23)nc1C`
5.76

Now consider `Cc1nc(NC(=O)[C@@H](O)CNC(=O)c2cccc(-c3cnn(C)c3)c2)cn1C(=O)OC(C)C` .
6.04

Please answer likewise for `Cc1nc(-c2cc(C(=O)NCCC(=O)Nc3nc(C)c(C(=O)OCCCCCCO)s3)cc(C(F)(F)F)c2)no1`
6.13

Can you check `Cc1nc(-c2ccc3ccnc(NC4CN(C(=O)Nc5nc(C)c(C(=O)OC(C)(C)C)s5)C4)c3c2)no1` next?
8.70

`Cc1nc(-c2ccc3ccnc(N[C@H]4C[C@@H](C(=O)Nc5nc(Cl)c(C(=O)NC(C)(C)C)s5)C4)c3c2)no1` ?
5.86

Next entry: Cc1nc(-c2cccc(C(=O)NCCC(=O)Nc3nc(C)c(C(=O)OCCCCN)s3)c2)no1 [Example 125, hydrochloride]
5.25

Subsequent entry: `COC(=O)c1sc(NC(=O)CCNc2nccc3ccc(-c4noc(C)n4)cc23)nc1C`
7.43

Now the molecule `Cc1nc(NC(=O)CCNC(=O)c2cccc(-c3nnn(C)n3)c2)sc1C(=O)OC(C)(C)C`
8.10

What would you report for `Cc1nc(-c2ccc3ccnc(N[C@H]4CCN(C(=O)c5cc(C(C)C)[nH]n5)C4)c3c2)no1` ?
5.47

Another molecule: `CC(=O)NCCCCOC(=O)c1sc(NC(=O)CCNC(=O)c2cccc(-c3noc(C)n3)c2)nc1C`
4.81

Try this molecule next: `CCc1cc(NC(=O)CCNc2nccc3ccc(-c4noc(C)n4)cc23)no1`
5.36

Then this molecule: `CCCOC(=O)c1sc(NC(=O)C[C@H](CCCNC)NC(=O)c2cccc(-c3noc(C)n3)c2)nc1C`
7.72

Also need `Cc1nc(-c2ccc3ccnc(N[C@H]4C[C@@H](C(=O)Nc5nc(Cl)c(C(=O)OC(C)(C)C)s5)C4)c3c2)no1` , thanks.
7.27

Can you handle `CNCCC[C@@H](CC(=O)Nc1nc(C)c(C(=O)OC2CCCC2)s1)Nc1nccc2ccc(-c3noc(C)n3)cc12` next?
7.64

How about CCCOC(=O)c1sc(NC(=O)[C@H](CNC(=O)c2cccc(-c3noc(C)n3)c2)N(C)C)nc1C [Example 175, formate] ?
6.47

Data credit: patent US20250084074A1
